# Test system: DYRK2
# TEST PARAMETERS: concentration: 1 μM, replicates: in singlicate; n = 1;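 also: KINOMEscan kinase panel screen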
Binary label based on %Inh with cut-off 10%: below gives condition met, not below gives condition not met.

Ask | Is the reported %Inh for O=C(Nc1n[nH]c2cc(-c3cccs3)ccc12)C1CC1 [SB-731284] strictly below 10%?
Reply | condition not met

Ask | Is the reported %Inh for CN(c1ccc2c(c1)nc(NCc1ccccc1)n2C)c1ccnc(Nc2ccc(CS(C)(=O)=O)cc2)n1.Cl [GW811603] strictly below 10%?
Reply | condition met

Ask | Is the reported %Inh for Nc1ncc(-c2ccc3nccc(-c4ccncc4)c3c2)cc1S(=O)(=O)N1CCCCC1 [GSK1693850] strictly below 10%?
Reply | condition not met

Ask | Is the reported %Inh for COC(=O)Nc1nc2ccc(Oc3ccc(CC(=O)Nc4cc(C(F)(F)F)ccc4F)cc3)cc2[nH]1 [GW680903] strictly below 10%?
Reply | condition met

Ask | Is the reported %Inh for N#Cc1cnc2cc(-c3cnc(CNCCN4CCOCC4)s3)ccc2c1Nc1ccc(Oc2ccccc2)cc1 [GW664114] strictly below 10%?
Reply | condition not met

----------
So I've got a bunch of compounds here, and I need their %Inh values.
# Tested on: CDC2L5
# Construct: gene CDK13
# TEST PARAMETERS: concentration: 1 μM, replicates: in singlicate; n = 1
Answers are plain numbers, in %.

List the reported %Inh of each compound below.
1. c1ccc(Oc2ccc(Nc3ccnc4cc(-c5ccc(CN6CCCCC6)o5)ccc34)cc2)nc1
2. CC(C)NCC(Cc1ccccc1)NC(=O)c1cc(Br)c(-c2ccnc3[nH]ccc23)s1.Cl.Cl (centres unmarked)
3. Cl.Cl.NCC(NC(=O)c1cc(-c2cccnc2)c(-c2ccnc3[nH]ccc23)s1)c1ccccc1 (centres unmarked)
4. COc1cccc(C2=C(Nc3cccc(O)c3)C(=O)NC2=O)c1
5. Cc1ccc(NC(=O)c2ccc(Cl)c(Cl)c2)cc1-c1ccc(C(=O)Nc2ccncc2)cc1
6. COC(=O)Nc1nc2ccc(Oc3ccc(NC(=O)Nc4cc(C(F)(F)F)ccc4F)cc3)cc2[nH]1.Cl
7. CC(C)(C)c1ccc(C(=O)Nc2cn3cc(-n4ccnc4)ccc3n2)cc1
8. CSc1ccc(NC2=C(c3ccc(Cl)cc3)C(=O)NC2=O)cc1

Reply |
0
0
0
0
0
6
7
0

----------
# System: HUNK
# TEST PARAMETERS: concentration: 1 μM, replicates: in singlicate; n = 1
ASSAY METRIC: %Inh (%)
Numbers only, in %.

CN(C)CCOc1ccc(-c2cc(-c3ccc(Cl)c(O)c3)c(-c3ccncc3)[nH]2)cc1.Cl.Cl [SB-684387] = 0

List the reported %Inh of each molecule below.
1. O=C(Nc1c(F)cccc1F)c1cc(C(=O)c2ccccc2F)c[nH]1 [GSK1326180]
2. Cc1ccc(NC(=O)c2ccnc(N3CCCCC3)c2)cc1-c1ccc(C(=O)NCC2CC2)cc1 [GW775610]
3. Cc1cc(-c2ccnc(Nc3cccc(C#N)c3)n2)cc(C)c1O [GSK1440913]

Reply |
24
0
43

----------
# Tested on: BRK
# Construct: gene PTK6
# TEST PARAMETERS: concentration: 1 μM, replicates: in singlicate; n = 1
So I've got a bunch of molecules here, and I need their %Inh values.
Give bare numbers, in %.

# count of solved cases: 6
CN(c1ccc(NC(=O)N2CCN(CCCN3CCOCC3)CC2)cc1)c1ccnc(Nc2ccc(CS(C)(=O)=O)cc2)n1.Cl = 27
Nc1cccc(-c2ccc3c(N)n[nH]c3c2)c1 = 8
CC(C)c1nc(-c2ccc(F)c(NS(=O)(=O)c3c(F)cccc3F)c2)c(-c2ccnc(Nc3ccc(N4CCOCC4)nc3)n2)s1 = 94.8
Cc1ccc(NC(=O)c2ccnc(N3CCCCC3)c2)cc1-c1ccc(C(=O)NCC2CC2)cc1 = 12
CS(=O)(=O)c1cccc(CNc2nc(Nc3ccc4c(c3)CCC(=O)N4)ncc2C(F)(F)F)c1 = 0
CC(C)(C)c1ccc(C(=O)Nc2cn3cc(-n4ccnc4)ccc3n2)cc1 = 15

List the reported %Inh of each molecule below.
1. Cl.N#CCc1ccc(Nc2nccc(Nc3ccc(Oc4ccccc4)cc3)n2)cc1
2. O=C(O)C(F)(F)F.O=c1[nH]ccc2nc(N[C@@H]3CCNC3)nc(Nc3cc(Cl)cc(Cl)c3)c12
3. CCNc1nccc(-c2c(-c3ccc(F)cc3)ncn2C2CCN(C)CC2)n1
4. Nc1ncc(-c2cn[nH]c2)c2scc(-c3ccc4c(c3)CCN4C(=O)Cc3ccccc3)c12
5. Cn1cc(-c2ccc3c(c2)CCN3C(=O)Cc2cc(F)cc(F)c2F)c2c(N)ncnc21
6. Cc1ccc(C)c(NC(=O)Nc2ccc(C)c(-c3ccc(C(=O)Nc4ccncc4)cc3)c2)c1

Reply |
1. 60
2. 5
3. 0
4. 96.1
5. 22
6. 25

----------
# Tested on: PIM1
# TEST PARAMETERS: concentration: 1 μM, replicates: in singlicate; n = 1
rule met means recorded %Inh is 10% or above; rule not met means it is below 10%.

As a guide, the following entries are already answered.
Cc1cccc(Nc2nc(N[C@H]3CCCC[C@H]3N)ncc2C(N)=O)c1.Cl = rule met
CC(C)c1nc(-c2cccc(NS(=O)(=O)c3c(F)cccc3F)c2)c(-c2ccnc(Nc3ccc(N4CCOCC4)nc3)n2)s1.Cl = rule not met
COc1cccc2c(-c3ccncc3)c(-c3ccc(F)cc3)nn12 = rule not met

Ask | Record Cl.Cl.NC(CNC(=O)c1cc(Br)c(-c2ccnc3[nH]ccc23)s1)c1ccccc1 (stereo not drawn) ; criterion: %Inh no lower than 10%. Met?
Reply | rule met

Ask | Record COc1ccc(C)c(Nc2ccnc(Nc3ccc(-c4cnc[nH]4)cc3)n2)c1.Cl ; criterion: %Inh no lower than 10%. Met?
Reply | rule not met

Ask | Record COC(=O)Nc1nc2cc(Oc3ccc(NC(=O)Nc4cccc(SC)c4)cc3)ccc2[nH]1.Cl ; criterion: %Inh no lower than 10%. Met?
Reply | rule met

----------
# System: BMPR2
# TEST PARAMETERS: concentration: 1 μM, replicates: in singlicate; n = 1
Binary label based on %Inh with cut-off 50%: below gives class 1, not below gives class 0.

CN(c1ccc(NC(=O)Nc2cccc(Cl)c2)cc1)c1ccnc(N)n1.Cl = class 0
COc1ccc(NC(=O)c2ccoc2)cc1-c1ccc(C(=O)NCC2CC2)cc1 = class 1
COc1cccc2c(-c3ccncc3)c(-c3ccc(F)cc3)nn12 = class 1
Cc1nn2c(=O)cc(N3CCO[C@H](C)C3)nc2n1Cc1cccc(Cl)c1Cl = class 1

Attention now turns to another entry.
Ask | Is the reported %Inh for CS(=O)(=O)c1cccc(CNc2nc(Nc3ccc4c(c3)CCC(=O)N4)ncc2C(F)(F)F)c1 strictly below 50%?
Reply | class 1

----------
# Tested on: FYN
# TEST PARAMETERS: concentration: 1 μM, replicates: in singlicate; n = 1
So I've got a bunch of molecules here, and I need their %Inh values.
Answers are plain numbers, in %.

# count of solved cases: 5
CCOc1nccc(-c2c(-c3ccc(F)cc3)ncn2C2CCNCC2)n1 [SB-249175] = 6
CCNC(=O)/C=C/c1n[nH]c2cc(Sc3ccccc3C(=O)NC)ccc12 = 0
O=C(Nc1n[nH]c2nc(-c3ccccc3)ccc12)C1CC1 [SB-708999] = 0
Cc1cccc(Nc2nc(N[C@H]3CCCC[C@H]3N)ncc2C(N)=O)c1.Cl [GSK986310] = 52
Cl.O=C(Nc1ccc(Oc2ccc3[nH]c(NC(=O)c4ccco4)nc3c2)cc1)Nc1cc(C(F)(F)F)ccc1F [GW683134] = 42

List the reported %Inh of each molecule below.
1. O=C(O)C(F)(F)F.O=c1[nH]ccc2nc(N[C@@H]3CCNC3)nc(Nc3ccc4c(c3)S(=O)(=O)CC4)c12 [GSK2181306]
2. CC(C)NCC(Cc1ccccc1)NC(=O)c1cc(Br)c(-c2ccnc3[nH]ccc23)s1.Cl.Cl (stereo not drawn) [GSK1383281]
3. COc1cccc2c(-c3ccncc3)c(-c3ccc(F)cc3)nn12 [GW468513]
4. CNc1nccc(-c2ccc3c(N)n[nH]c3c2)n1 [GSK2206003]
5. CN1CCN(Cc2ccc(NC(=O)Nc3ccc(N(C)c4ccnc(Nc5ccc(CS(C)(=O)=O)cc5)n4)cc3)cc2)CC1.Cl [GW827654]

Reply |
[43, 2, 27, 17, 40]

List the reported %Inh of each molecule below.
1. CN(c1ccc2c(c1)nc(NCc1ccccc1)n2C)c1ccnc(Nc2ccc(CS(C)(=O)=O)cc2)n1.Cl [GW811603]
2. COc1ccc(NC(=O)c2ccoc2)cc1-c1ccc(C(=O)NCC2CC2)cc1 [GW810437]
3. Cn1cc(-c2ccc3c(c2)CCN3C(=O)Cc2cc(F)cc(F)c2F)c2c(N)ncnc21 [GSK2634140]
4. COc1cc(Nc2ccnc3cc(-c4ccncc4)ccc23)cc(OC)c1OC.Cl [GW494610]
5. COc1ccc(C2=C(Nc3cccc(O)c3)C(=O)NC2=O)cc1 [SB-390766]
6. Cn1cc(-c2cnc(N)c3c(-c4ccc5c(c4)CCN5C(=O)Cc4ccccc4)csc23)cn1 [GSK2593074]
7. CC(C)c1nc(-c2cccc(NS(=O)(=O)c3c(F)cccc3F)c2)c(-c2ccnc(Nc3ccc(N4CCOCC4)nc3)n2)s1.Cl [GSK1723980]

Reply |
69
0
0
75
34
25
98.6
